Cited source for all entries: the Biogen ADME set (Fang et al. 2023)

- condition context: pH 6.8
Parameter threshold = 30 µg/mL. Response is Y when aqueous solubility meets or exceeds it, else N.

The examples below pair each entry with its known result.
INSERT INTO results (compound, label_class) VALUES
  ('CN(C)S(=O)(=O)Nc1ccc(-n2ncc3ccccc32)cc1', 'Y'),
  ('Cc1ccnc(NC(=O)CN(C)c2ncnc3sc4c(c23)CCC(C)C4)c1 (configuration not stated)', 'N'),
  ('CC(C)CC(=O)Nc1ccc(Cl)c(C#N)c1', 'N'),
  ('N=C(N)N/N=C/c1c(Cl)cccc1Cl', 'Y'),
  ('CCc1cnc(CN2C(=O)NC3(CCC3)C2=O)o1', 'Y'),
  ('Cc1ccc(CN2CC[C@H](c3nnc(-c4ccccc4F)o3)C2)o1', 'Y'),
  ('Cc1nn(C)c(C)c1C(=O)NCc1ccccc1', 'Y'),
  ('CSCC[C@@H](CO)n1ccnc1-c1oc2ccccc2c1C', 'Y');

Q) I'd appreciate it if you could say whether O=C1N=C(N2CCCCN2)S/C1=C\c1ccc(F)cc1O has aqueous solubility at least equal to 30 µg/mL.
A) N

Q) I'd appreciate it if you could say whether CCCCOc1ccc(-c2cc3c(=O)[nH]ccn3n2)cc1 has aqueous solubility at least equal to 30 µg/mL.
A) N

Q) I'd appreciate it if you could say whether C#CCNC(=O)c1ccc(OC)c(OC)c1 has aqueous solubility at least equal to 30 µg/mL.
A) N

----------
Each item that follows carries a reported intrinsic clearance, rat liver microsomes.
Output spec: scalar in mL/min/kg, unitless text.

These solved cases illustrate the format of a correct answer.
INSERT INTO results (molecule, measured_value) VALUES
  ('CN(C)CC(C)(C)CNc1cn[nH]c(=O)c1Br', 43.9),
  ('COc1ccc(OC)c(-c2cc(C(=O)N3CCCN(C(C)=O)CC3)no2)c1', 214),
  ('O=C(Nc1ccccc1-n1ccnc1)c1cccs1', 39.2),
  ('O=C(CN1CCCC(c2cncc(-c3cccc(Cl)c3)n2)C1)N1CCCC1 (configuration not stated)', 1080),
  ('CC(C)c1cc(CN(C)Cc2c[nH]nc2-c2ccc(F)cc2)no1', 1780);

Q) Which intrinsic clearance, rat liver microsomes value is on record for CN(C(=O)C1CCN(c2ncccn2)CC1)C1CCCCCCC1 ?
A) 3890

----------
Each item that follows carries a reported MDR1-MDCK efflux ratio.

INSERT INTO assay_data (molecule, measured_value) VALUES
  ('CCc1nnnn1Cc1noc2c1CCCC2', 0.792),
  ('O=C(c1ccc2c(c1)CCCC2)N1CCOCC1c1ccn[nH]1 (stereo not drawn)', 4.04);

Q) Which MDR1-MDCK efflux ratio value is on record for COc1ncnc2c1CN(Cc1c[nH]nc1-c1ccc(F)cc1)CC2 ?
A) 7.03

Q) Which MDR1-MDCK efflux ratio value is on record for CC(C)c1nc(O)c2nnn(C[C@@H]3CCCN(Cc4cccs4)C3)c2n1 ?
A) 22.3

Q) Which MDR1-MDCK efflux ratio value is on record for Cc1cc(C)nc(NCc2cnc(C)c(C)c2)n1 ?
A) 0.622

Q) Which MDR1-MDCK efflux ratio value is on record for CNC(=O)c1sc2ncccc2c1[C@H]1CC[C@H](CNC(=O)COc2ccccc2)CC1 ?
A) 31

Q) Which MDR1-MDCK efflux ratio value is on record for O[C@@H]1CO[C@H]2C[C@@H]1Nc1c(-c3ccccc3)cccc12 ?
A) 0.599
